protocol.notes: in vitro
condition.details: pig, lung membranes, pH 7.2
Where no end group is shown, it is not given here.

{"columns": ["biosequence", "half-life at 100 µM"],
 "data": [
  ["RPPGFSPFR [Bradykinin]", "3 min"]
]}

###

protocol.notes: stability in porcine kidney cortical membranes
Type: in vitro ADME
condition.details: pig, pH 7.2, porcine kidney preparation
Where no end group is shown, it is not given here.

{"columns": ["biosequence", "half-life at 100 µM (min)"],
 "data": [
  ["RPPGFSPFR [Bradykinin]", 3]
]}

###

system.name: bradykinin type 2 (BK2) receptors (Cavia porcellus)
Construct: from tissue; host or cells: guinea pig ileum membrane preparation (Hartley strain)
Sequence (O70526 whole entry): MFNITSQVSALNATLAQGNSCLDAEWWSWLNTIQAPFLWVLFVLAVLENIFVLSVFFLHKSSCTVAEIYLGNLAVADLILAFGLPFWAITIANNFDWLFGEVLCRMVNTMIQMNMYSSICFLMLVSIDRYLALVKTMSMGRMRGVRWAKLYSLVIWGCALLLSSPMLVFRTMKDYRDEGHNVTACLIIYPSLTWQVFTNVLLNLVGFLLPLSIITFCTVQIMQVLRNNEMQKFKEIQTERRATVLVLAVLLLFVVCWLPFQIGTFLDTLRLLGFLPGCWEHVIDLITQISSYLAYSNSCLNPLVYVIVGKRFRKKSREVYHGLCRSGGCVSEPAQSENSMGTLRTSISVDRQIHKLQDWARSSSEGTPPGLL
protocol.notes: antagonist binding to guinea pig ileum (tritium labeled bradykinin)
pKi: −log10 of the molar value. Where no end group is shown, it is not given here.

{"columns": ["biosequence", "pKi"],
 "data": [
  ["RPPGFSPFR [Bradykinin]", 10.52]
]}

###

system.name: bradykinin type 2 (BK2) receptors (Rattus norvegicus, UniProt P25023)
Construct: Uterine horns were removed, placed under a 1 g resting tension in 4 mL tissue baths; from tissue; host or cells: rat uterine horns (Sprague-Dawley, stilbesterol-pretreated)
Sequence (P25023 whole entry): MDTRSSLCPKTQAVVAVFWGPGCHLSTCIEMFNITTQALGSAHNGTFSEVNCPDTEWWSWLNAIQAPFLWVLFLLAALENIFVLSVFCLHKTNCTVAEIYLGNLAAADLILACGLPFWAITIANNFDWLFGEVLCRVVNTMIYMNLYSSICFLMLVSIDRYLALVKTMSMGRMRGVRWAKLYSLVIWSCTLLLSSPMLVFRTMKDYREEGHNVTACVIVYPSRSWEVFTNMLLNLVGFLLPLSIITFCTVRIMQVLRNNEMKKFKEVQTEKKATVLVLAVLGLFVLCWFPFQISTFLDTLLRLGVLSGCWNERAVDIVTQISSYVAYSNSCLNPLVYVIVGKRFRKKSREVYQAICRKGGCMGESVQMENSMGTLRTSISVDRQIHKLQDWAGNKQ
protocol.notes: standard rat uterus pA2 assay (in vitro B2 antagonist activity)
condition.details: recovery of agonist response after washing 40 minutes following highest antagonist concentration
Each entry below carries its reported % Recovery.
readout.label: % Recovery (%)

{"columns": ["substance", "system.name", "val"],
 "data": [
  ["D-Arg-Arg-Pro-Hyp-Gly-Thi-Ser-D-Cpg-NChg-Arg [Compound 10]", "bradykinin type 2 (BK2) receptors (Rattus norvegicus, UniProt P25023)", 75],
  ["D-Arg-Arg-Pro-Hyp-Gly-Thi-Ser-D-Tic-Oic-Arg [HOE-140, reference compound]", "bradykinin type 2 (BK2) receptors (Rattus norvegicus, UniProt P25023)", 41],
  ["D-Arg-Arg-Pro-Hyp-Gly-Thi-Ser-D-Tic-NCpg-Arg [Compound 8]", "bradykinin type 2 (BK2) receptors (Rattus norvegicus, UniProt P25023)", 56],
  ["D-Arg-Arg-Pro-Hyp-Gly-Thi-Ser-NBng-Oic [Compound 1]", "bradykinin type 2 (BK2) receptors (Rattus norvegicus, UniProt P25023)", 32],
  ["D-Arg-Arg-Pro-Hyp-Gly-Thi-Ser-D-NBng-Oic-Arg [Compound 6]", "bradykinin type 2 (BK2) receptors (Rattus norvegicus, UniProt P25023)", 93],
  ["D-Arg-Arg-Pro-Hyp-Gly-Thi-Ser-D-Phe-NChg-Arg [Compound 9]", "bradykinin type 2 (BK2) receptors (Rattus norvegicus, UniProt P25023)", 87],
  ["D-Arg-Arg-Pro-Hyp-Gly-Thi-Ser-D-Tic-NChg-Arg [Compound 5]", "bradykinin type 2 (BK2) receptors (Rattus norvegicus, UniProt P25023)", 71],
  ["D-Arg-Arg-Pro-Hyp-Gly-Thi-Ser-D-Tic-NPhg-Arg [Compound 15]", "bradykinin type 2 (BK2) receptors (Rattus norvegicus, UniProt P25023)", 54],
  ["D-Arg-Arg-Pro-Hyp-Gly-Thi-Ser-DTic-NChg [Compound 2]", "bradykinin type 2 (BK2) receptors (Rattus norvegicus, UniProt P25023)", 0],
  ["D-Arg-Arg-Pro-Hyp-Gly-Thi-Ser-D-Phe-NPhg-Arg [Compound 16]", "bradykinin type 2 (BK2) receptors (Rattus norvegicus, UniProt P25023)", 60],
  ["δ-Gpa-Pro-Hyp-Gly-Thi-Ser-D-Tic-NChg-Arg [Compound 14]", "bradykinin type 2 (BK2) receptors (Rattus norvegicus, UniProt P25023)", 81],
  ["D-Arg-Arg-Hyp-Hyp-Gly-Thi-Ser-D-Tic-NChg-Arg [Compound 17]", "bradykinin type 2 (BK2) receptors (Rattus norvegicus, UniProt P25023)", 60],
  ["δ-Gpa-Arg-Pro-Hyp-Gly-Thi-Ser-D-Tic-NChg-Arg [Compound 13]", "bradykinin type 2 (BK2) receptors (Rattus norvegicus, UniProt P25023)", 66],
  ["D-Arg-Arg-Pro-Hyp-Gly-Thi-Ser-Igl*-NChg-Arg [Compound 3]", "bradykinin type 2 (BK2) receptors (Rattus norvegicus, UniProt P25023)", 100]
]}
